Recorded values, source patent US7998985B2.

assay: Bioavailability, rat; details: in vivo
experimentalReadout: bioavailability (%)
Note: unit % is implicit; provide only the numeric part.

Reported bioavailability for CC(C)(N[C@@H]1C[C@H](c2cccc(OC(F)(F)F)c2)N(c2ccc(C(F)(F)F)cc2)C1=O)c1ccc(C(F)(F)F)nc1.Cc1ccc(S(=O)(=O)O)cc1 [drawing 21] was 65

----------
experiment: Bioavailability, dog; conditions: in vivo
experimentalReadout: bioavailability (%)
Note: unit % is implicit; provide only the numeric part.

Reported bioavailability for CC(C)(N[C@@H]1C[C@H](c2cccc(OC(F)(F)F)c2)N(c2ccc(C(F)(F)F)cc2)C1=O)c1ccc(C(F)(F)F)nc1.Cc1ccc(S(=O)(=O)O)cc1 [drawing 21] was 60
